// provenance: PubChem BioAssay (Tox21)

target-system: Acetylcholinesterase (Homo sapiens) (UniProt P22303)
Sequence (P22303 whole entry, looked up): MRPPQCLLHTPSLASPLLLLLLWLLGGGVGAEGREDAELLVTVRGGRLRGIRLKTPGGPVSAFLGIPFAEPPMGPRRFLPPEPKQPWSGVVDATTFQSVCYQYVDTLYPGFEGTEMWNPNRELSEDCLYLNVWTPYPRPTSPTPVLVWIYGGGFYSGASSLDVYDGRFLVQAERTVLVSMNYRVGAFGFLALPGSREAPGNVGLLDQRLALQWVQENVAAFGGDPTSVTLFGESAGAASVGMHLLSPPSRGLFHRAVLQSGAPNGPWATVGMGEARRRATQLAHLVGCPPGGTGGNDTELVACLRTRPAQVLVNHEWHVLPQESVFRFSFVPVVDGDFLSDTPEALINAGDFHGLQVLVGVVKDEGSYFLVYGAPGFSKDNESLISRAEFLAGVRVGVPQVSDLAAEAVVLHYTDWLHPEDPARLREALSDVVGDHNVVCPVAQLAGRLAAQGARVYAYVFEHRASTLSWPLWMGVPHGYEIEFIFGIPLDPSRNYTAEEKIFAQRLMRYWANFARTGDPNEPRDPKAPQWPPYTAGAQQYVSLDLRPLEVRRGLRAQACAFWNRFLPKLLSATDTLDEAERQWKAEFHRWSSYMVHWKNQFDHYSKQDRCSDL
measurement-notes: Acetylcholinesterase (AChE) small molecule antagonists: enzyme-based qHTS assay with human liver microsomes (AID 1347399); further: nearly all actives have a fitted effect of over 60% in size
measurement-setup: qHTS inhibition; series mostly up to 115 µM
Activity calls are given as the source filed them. The call rests on the fitted dose curve.
Could you please pick one outcome from this set? T for active, F for inactive

{"molecule": "CC(C)CCCC(C)(C)O", "target-system": "Acetylcholinesterase (Homo sapiens) (UniProt P22303)", "category-label": "F"}
{"molecule": "C=CCc1cc(S(=O)(=O)c2ccc(O)c(CC=C)c2)ccc1O", "target-system": "Acetylcholinesterase (Homo sapiens) (UniProt P22303)", "category-label": "F"}
{"molecule": "O=C(Nc1ccc(Oc2ccc(Cl)cc2)c(Cl)c1)c1cc(I)cc(I)c1O", "target-system": "Acetylcholinesterase (Homo sapiens) (UniProt P22303)", "category-label": "F"}
{"molecule": "O=C(O)Cc1ccc(OCCNC[C@H](O)c2ccccc2)cc1", "target-system": "Acetylcholinesterase (Homo sapiens) (UniProt P22303)", "category-label": "F"}
{"molecule": "CCN(CC)CCOC(=O)C1(c2ccccc2)CCCC1", "target-system": "Acetylcholinesterase (Homo sapiens) (UniProt P22303)", "category-label": "F"}

Name the outcome recorded for `CCOC(=O)c1cnc2c(cnn2CC)c1NN=C(C)C` in the assay.
F

Name the outcome recorded for `CCNC(=O)NCCCOc1cccc(CN2CCCCC2)c1` in the assay.
F

Name the outcome recorded for `O=CC(=O)c1ccccc1` in the assay.
T

Name the outcome recorded for `COc1cnc(NS(=O)(=O)c2ccc(N)cc2)nc1` in the assay.
F

Name the outcome recorded for `CC(C)COC(=O)COc1cc(Cl)c(Cl)cc1Cl` in the assay.
F

Name the outcome recorded for `C=CCCC(=O)O` in the assay.
F

----------
measurement-notes: qHTS assay for small molecule agonists of the p53 signaling pathway (AID 651631); further: nearly all actives have a fitted effect of over 15% in size
measurement-setup: HCT-116 p53RE-bla reporter, beta-lactamase FRET ratio, 16 h; series mostly up to 73.3 µM
Inconclusive results are not listed. Activity calls are given as the source filed them. Calls come from the whole dose curve.
quantity-measured: outcome

Look over these answered cases.
{"compound": "CCC(=O)O[C@H]1[C@@H](N2CCCCC2)C[C@H]2[C@@H]3CC[C@H]4C[C@H](OC(C)=O)[C@@H](N5CCCCC5)C[C@]4(C)[C@H]3CC[C@@]21C", "outcome": "inactive"}
{"compound": "Cc1ccccc1C", "outcome": "inactive"}
{"compound": "C1=C\\CC/C=C\\CC/C=C\\CC/1", "outcome": "inactive"}
{"compound": "C[N+]12CCC(CC1)C(OC(=O)C(O)(c1ccccc1)c1ccccc1)C2 (configuration not stated)", "outcome": "inactive"}
{"compound": "Nc1ncnc2c1ncn2CCOCP(=O)(O)O", "outcome": "inactive"}

Query outcome for CNC(C)[C@@H]1CC[C@@H](N)[C@@H](O[C@H]2[C@H](O)[C@@H](O[C@H]3OC[C@](C)(O)[C@H](NC)[C@H]3O)[C@H](N)C[C@@H]2N)O1 (some centres not stated)
inactive

Query outcome for `Cc1ccc(N)cc1[N+](=O)[O-]`
inactive

----------
target-system: Acetylcholinesterase (Homo sapiens) (UniProt P22303)
measurement-notes: Acetylcholinesterase (AChE) small molecule antagonists: fluorescence cell-based qHTS assay (AID 1347398); further: nearly all actives have a fitted effect of over 50% in size
measurement-setup: SH-SY5Y cells; AChE activity; series mostly up to 115 µM
Results filed as inconclusive are left out. The source made the active and inactive calls. The call rests on the fitted dose curve.
Could you please pick one outcome from this set? active, inactive

// known answers, use as guide
{"compound": "Cc1cccc(C)c1NC(=O)C(C)N (stereo unspecified)", "category-label": "inactive"}
{"compound": "CC1=CCC(C(C)C)C=C1 (stereo unspecified)", "category-label": "inactive"}
{"compound": "CCCCCCc1ccc(N)cc1", "category-label": "inactive"}

Name the outcome recorded for CCOCC(C)O (stereo unspecified) in the assay.
inactive

Name the outcome recorded for `CC/C=C/CCCCCCCCCCOC(C)=O` in the assay.
inactive
